Kindly supply the reported reduction of paw edema values for the records listed here.
# System: carrageenan-induced paw edema in BALB/c mice
# experiment summary: Carrageenan-induced paw edema
# Format: in vivo
# cond: 20 mg/kg i.p., 60 min before carrageenan; 4 hours after induction

Provide one value: measured reduction of paw edema of CCN1CCc2c(sc(NC(=O)c3ccc(C#N)cc3)c2-c2nc3ccccc3s2)C1 33%

Provide one value: measured reduction of paw edema of CN1CCc2c(sc(NC(=O)CCN3C(=O)c4ccccc4C3=O)c2-c2nc3ccccc3s2)C1 19.5%

Provide one value: measured reduction of paw edema of CC(C)N1CCc2c(sc(NC(=O)c3ccc(N(C)C)cc3)c2-c2nc3ccccc3s2)C1 28.1%

Provide one value: measured reduction of paw edema of CN1CCc2c(sc(NC(=O)c3cc4ccccc4o3)c2-c2nc3ccccc3s2)C1 29.2%

Provide one value: measured reduction of paw edema of CSc1ccc(CC(=O)Nc2sc3c(c2-c2nc4ccccc4s2)CCN(C)C3)cc1 32.1%

Provide one value: measured reduction of paw edema of COc1cccc(OCC(=O)Nc2sc3c(c2-c2nc4ccccc4s2)CCN(C)C3)c1 22.8%
